Provide the reported pIC50 of each item.
# measured.target: Human Factor D (Homo sapiens (Human))
# Sequence (P00746 26-253): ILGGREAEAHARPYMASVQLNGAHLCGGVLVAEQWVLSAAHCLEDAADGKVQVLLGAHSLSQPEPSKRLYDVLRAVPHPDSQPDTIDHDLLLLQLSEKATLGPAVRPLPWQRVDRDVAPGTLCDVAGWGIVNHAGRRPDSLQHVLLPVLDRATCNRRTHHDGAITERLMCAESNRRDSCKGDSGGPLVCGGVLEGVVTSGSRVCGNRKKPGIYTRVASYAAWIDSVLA
# assay.details: Human Factor D Assay
# Type: biochemical
# test.settings: Table 7; read-out: IC5 (Stars)
pIC50: −log10 of the molar value.

# input Given the entry Cc1ccc(Br)nc1NC(=O)[C@@H]1C[C@@]2(C)C[C@H]2N1C(=O)Cc1ccc2[nH]nc(C(=O)O)c2c1 [Compound T-158] , report its measured pIC50.
# output 5.00 to 6.00

# input Name the reported pIC50 value associated with the compound Cc1ccc(Br)nc1NC(=O)[C@@H]1C[C@@]2(C)C[C@H]2N1C(=O)Cc1cccc(-c2nnn[nH]2)c1
# output < 5.00

# input Request the reported pIC50 associated with COc1ncc(-c2cc(CC(=O)N3C[C@H](F)C[C@H]3C(=O)Nc3cccc(Br)n3)cc(-c3cnc(OC)nc3)c2)cn1
# output < 5.00

# input What does the record list as pIC50 for Cc1ccc(Br)nc1NC(=O)[C@@H]1C[C@@]2(CNC(=O)COCCOCCNC(=O)COCCOCCNC(=O)CC[C@H](NC(=O)CCCCCCCCCCCCCCCCC(=O)O)C(=O)O)C[C@H]2N1C(=O)Cn1nc(C(N)=O)c2cc(Nc3cccnc3)ccc21 ?
# output > 6.00

# input Sample Cc1ncc(-c2cc(C#N)cc(CC(=O)N3C[C@H](F)C[C@H]3C(=O)Nc3cccc(Br)n3)c2)cn1 [Compound T-170] — what was its pIC50?
# output 5.00 to 6.00

# input I would be grateful if you could share the reported pIC50 for CC(=O)c1nn(CC(=O)N2[C@H](C(=O)Nc3nc(Br)ccc3C)C[C@@]3(C)C[C@@H]23)c2cc3sc(C)nc3cc12 .
# output > 6.00

# input Please report the recorded pIC50 for CC(=O)c1cc(CC(=O)N2[C@H](C(=O)Nc3nc(Br)ccc3C)C[C@@]3(C)C[C@@H]23)cc(-c2cnc(C)nc2)c1 .
# output > 6.00

# input I'd like to know its pIC50. The compound in question is Cc1cc2c(s1)c(C(N)=O)nn2CC(=O)N1[C@H](C(=O)Nc2nc(Br)ccc2C)C[C@@]2(CNC(=O)COCCOCCNC(=O)COCCOCCNC(=O)CC[C@H](NC(=O)CCCCCCCCCCCCCCCCC(=O)O)C(=O)O)C[C@@H]12
# output > 6.00

# input What does the data say about its pIC50? Entry: COc1ncc(-c2cccc(CC(=O)N3[C@H](C(=O)Nc4nc(Br)ccc4C)C[C@@]4(C)C[C@@H]34)c2)cn1
# output < 5.00

# input What pIC50 value was documented for this compound, COc1ncc(-c2cc(CC(=O)N3C[C@H](F)C[C@H]3C(=O)Nc3cccc(-c4ccccc4Cl)c3F)cc(-c3cnc(OC)nc3)c2)cn1 ?
# output < 5.00

# input Form field: reported pIC50 of Cc1ncc(-c2cc(CC(=O)N3[C@H](C(=O)Nc4nc(Br)ccc4C)C[C@@]4(C)C[C@@H]34)cc(C(N)=O)c2)cn1 [Compound T-169]
# output 5.00 to 6.00

# input Requested field: pIC50. Item: CC(=O)c1nn(CC(=O)N2[C@H](C(=O)Nc3nc(Br)ccc3C)C[C@@]3(CNC(=O)COCCOCCNC(=O)COCCOCCNC(=O)CC[C@H](NC(=O)CCCCCCCCCCCCCCCCC(=O)O)C(=O)O)C[C@@H]23)c2ccccc12
# output > 6.00

# input Any idea what pIC50 was measured for CC(=O)c1nn(CC(=O)N2[C@H](C(=O)Nc3nc(Br)ccc3C)C[C@@]3(C)C[C@@H]23)c2cc(OCP(=O)(O)O)ccc12 ?
# output > 6.00

# input Endpoint output: pIC50 of Cc1ccc(Br)nc1NC(=O)[C@@H]1C[C@@]2(CNC(=O)COCCOCCNC(=O)COCCOCCNC(=O)CC[C@H](NC(=O)CCCCCCCCCCCCCCCCC(=O)O)C(=O)O)C[C@H]2N1C(=O)Cn1nc(C(N)=O)c2ccc(C(=O)NS(=O)(=O)C3CC3)cc21 . Value?
# output > 6.00

# input Quick one: pIC50 of CC(=O)c1nn(CC(=O)N2[C@H](C(=O)Nc3nc(Br)ccc3C)C[C@@]3(C)C[C@@H]23)c2cc3nc(C)sc3cc12 ?
# output > 6.00

# input Name the reported pIC50 value associated with the compound COc1cc(CC(=O)N2[C@H](C(=O)Nc3nc(Br)ccc3C)C[C@@]3(C)C[C@@H]23)cc(-c2cnc(OC)nc2)c1 [Compound T-153]
# output 5.00 to 6.00

# input Given the entry Cc1ncc(-c2cc(C#N)cc(CC(=O)N3[C@H](C(=O)Nc4nc(Br)ccc4C)C[C@@]4(C)C[C@@H]34)c2)cn1 [Compound T-171] , report its measured pIC50.
# output 5.00 to 6.00

# input Look at this compound and give its reported pIC50. COC(=O)c1cc2c(cc1-c1cnc(C)nc1)c(C(C)=O)nn2CC(=O)N1[C@H](C(=O)Nc2nc(Br)ccc2C)C[C@@]2(C)C[C@@H]12
# output > 6.00

# input Name the recorded pIC50 for CC(=O)c1nn(CC(=O)N2[C@H](C(=O)Nc3nc(Br)ccc3C)C[C@@]3(C)C[C@@H]23)c2cc3nc(C)oc3cc12 .
# output > 6.00

# input May I ask what pIC50 has been recorded for Cc1ncc(-c2cc(CC(=O)N3[C@H](C(=O)Nc4nc(Br)ccc4C)C[C@@]4(C)C[C@@H]34)cc(C(N)=O)c2)cn1 [Compound T-113] ?
# output 5.00 to 6.00

# input Can you look up the measured pIC50 of Cc1ncc(-c2cc(CC(=O)N3C[C@H](F)C[C@H]3C(=O)Nc3cccc(Br)n3)cc(C(N)=O)c2)cn1 [Compound T-111] for me?
# output 5.00 to 6.00

# input Request the reported pIC50 associated with CC(=O)c1cc(CC(=O)N2C[C@H](F)C[C@H]2C(=O)Nc2cccc(Br)n2)cc(-c2cnc(C)nc2)c1
# output > 6.00

# input // returns reported pIC50 for input Cc1ncc(-c2cc(CC(=O)N3C[C@H](F)C[C@H]3C(=O)Nc3cccc(-c4ccccc4Cl)c3F)cc(-c3cnc(C)nc3)c2)cn1
# output < 5.00

Where do the numbers come from? From patent US11447465B2.
